system: Escherichia coli; test: Antibacterial activity against tolC-deficient Escherichia coli NB27005-CDY0039 expressing gyrA S83L […], parC S80I mutant by broth microdilution method; assay type: functional
Exercise: state measured MIC for each of the molecules provided.
Numbers only, in µg/mL.

O=C(O)c1cn(C2CC2)c2cc(N3CCN(C(=O)OCCOCCOCCOC(=O)N4CCN(c5cc6c(cc5F)c(=O)c(C(=O)O)cn6C5CC5)CC4)CC3)c(F)cc2c1=O	32

Below: the item to evaluate.
For the molecule shown here, `O=CN1CCN(c2cc3c(cc2F)c(=O)c(C(=O)O)cn3C2CC2)CC1` , give the reported MIC. 4

====

test system: Pseudomonas aeruginosa; test: Antibacterial activity against wild type Pseudomonas aeruginosa PAO1 by broth microdilution method; format: functional
assay metric: MIC

Reference set (5 entries):
O=C(CCN1CCN(c2cc3c(cc2F)c(=O)c(C(=O)O)cn3C2CC2)CC1)NCCOCCOCCNC(=O)CCN1CCN(c2cc3c(cc2F)c(=O)c(C(=O)O)cn3C2CC2)CC1	> 32 mg/L
O=C(CN1CCN(c2cc3c(cc2F)c(=O)c(C(=O)O)cn3C2CC2)CC1)NCCOCCOCCNC(=O)CN1CCN(c2cc3c(cc2F)c(=O)c(C(=O)O)cn3C2CC2)CC1	> 32 mg/L
O=C(O)c1cn(C2CC2)c2cc(N3CCN(C(=O)c4cccc(C(=O)N5CCN(c6cc7c(cc6F)c(=O)c(C(=O)O)cn7C6CC6)CC5)c4)CC3)c(F)cc2c1=O	> 32 mg/L
O=C(O)c1cn(C2CC2)c2cc(N3CCN(CCOCCOCCOCCOCCOCCN4CCN(c5cc6c(cc5F)c(=O)c(C(=O)O)cn6C5CC5)CC4)CC3)c(F)cc2c1=O	32 mg/L
Cc1cc(C(=O)N2CCN(c3cc4c(cc3F)c(=O)c(C(=O)O)cn4C3CC3)CC2)cc(C(=O)N2CCN(c3cc4c(cc3F)c(=O)c(C(=O)O)cn4C3CC3)CC2)c1	4 mg/L

--- query ---
Please look up its MIC: `C=CCCC(=O)N1CCN(c2cc3c(cc2F)c(=O)c(C(=O)O)cn3C2CC2)CC1` 16 mg/L

====

Kindly supply the reported MIC values for the records listed here.
system: Pseudomonas aeruginosa; assay: Antibacterial activity against wild type Pseudomonas aeruginosa PAO1 by broth microdilution method; assay type: functional
Numbers only, in µg/mL.

Field: example entries. Status: answers known.
O=C(NCC(=O)N1CCN(c2cc3c(cc2F)c(=O)c(C(=O)O)cn3C2CC2)CC1)c1cccc(C(=O)NCC(=O)N2CCN(c3cc4c(cc3F)c(=O)c(C(=O)O)cn4C3CC3)CC2)c1	16
O=C(O)c1cn(C2CC2)c2cc(N3CCN(CCOCCOCCOCCN4CCN(c5cc6c(cc5F)c(=O)c(C(=O)O)cn6C5CC5)CC4)CC3)c(F)cc2c1=O	16
O=C(O)c1cn(C2CC2)c2cc(N3CCN(Cc4cccc(CN5CCN(c6cc7c(cc6F)c(=O)c(C(=O)O)cn7C6CC6)CC5)c4)CC3)c(F)cc2c1=O	32

Give its MIC value. Item: `O=C(O)c1cn(C2CC2)c2cc(N3CCN(CCOCCOCCOc4ccc5ccc(=O)oc5c4)CC3)c(F)cc2c1=O` 16

====

Kindly supply the reported log10 of MIC values for the records listed here.
system: Escherichia coli; assay: Antibacterial activity against tolC-deficient Escherichia coli JW5503-1 by broth microdilution method; format: functional
Base-10 log of MIC, unit µg/mL.

O=C(O)c1cn(C2CC2)c2cc(N3CCN(C(=O)c4cccc(C(=O)N5CCN(c6cc7c(cc6F)c(=O)c(C(=O)O)cn7C6CC6)CC5)c4)CC3)c(F)cc2c1=O	-0.90
O=C(CN1CCN(c2cc3c(cc2F)c(=O)c(C(=O)O)cn3C2CC2)CC1)NCCOCCOCCNC(=O)CN1CCN(c2cc3c(cc2F)c(=O)c(C(=O)O)cn3C2CC2)CC1	0.60
CC(C)(C)OC(=O)NCCCCCC(=O)N1CCN(c2cc3c(cc2F)c(=O)c(C(=O)O)cn3C2CC2)CC1	-1.22
O=C(CN1CCN(c2cc3c(cc2F)c(=O)c(C(=O)O)cn3C2CC2)CC1)NCCCN1CCN(CCCNC(=O)CN2CCN(c3cc4c(cc3F)c(=O)c(C(=O)O)cn4C3CC3)CC2)CC1	0.30

Dear colleague, could you please provide log10 of MIC for the molecules listed below?
1. O=C(CCN1CCN(c2cc3c(cc2F)c(=O)c(C(=O)O)cn3C2CC2)CC1)NCCOCCOCCNC(=O)CCN1CCN(c2cc3c(cc2F)c(=O)c(C(=O)O)cn3C2CC2)CC1
2. O=C(O)c1cn(C2CC2)c2cc(N3CCN(CCOCCOCCOCCOCCOCCN4CCN(c5cc6c(cc5F)c(=O)c(C(=O)O)cn6C5CC5)CC4)CC3)c(F)cc2c1=O
3. O=C(O)c1cn(C2CC2)c2cc(N3CCN(C(=O)OCCOCCOCCOC(=O)N4CCN(c5cc6c(cc5F)c(=O)c(C(=O)O)cn6C5CC5)CC4)CC3)c(F)cc2c1=O

0.00
-0.90
-0.90

====

system: Pseudomonas aeruginosa; assay: Antibacterial activity against mexX, mexB deficient Pseudomonas aeruginosa NB52023-CDK006 harboring gyrAT83I and parC S87L by broth microdilution method; type: functional
assay metric: MIC

Field: MIC. Fill in for each record below.
1. O=C(O)c1cn(C2CC2)c2cc(N3CCN(C(=O)OCCOCCOCCOC(=O)N4CCN(c5cc6c(cc5F)c(=O)c(C(=O)O)cn6C5CC5)CC4)CC3)c(F)cc2c1=O
2. O=C(NCCCCC(=O)N1CCN(c2cc3c(cc2F)c(=O)c(C(=O)O)cn3C2CC2)CC1)c1cccc(C(=O)NCCCCC(=O)N2CCN(c3cc4c(cc3F)c(=O)c(C(=O)O)cn4C3CC3)CC2)c1
3. O=C(CN1CCN(c2cc3c(cc2F)c(=O)c(C(=O)O)cn3C2CC2)CC1)NCCOCCOCCNC(=O)CN1CCN(c2cc3c(cc2F)c(=O)c(C(=O)O)cn3C2CC2)CC1
4. O=C(NCC(=O)N1CCN(c2cc3c(cc2F)c(=O)c(C(=O)O)cn3C2CC2)CC1)c1cccc(C(=O)NCC(=O)N2CCN(c3cc4c(cc3F)c(=O)c(C(=O)O)cn4C3CC3)CC2)c1
5. O=C(O)c1cn(C2CC2)c2cc(N3CCN(Cc4cccc(CN5CCN(c6cc7c(cc6F)c(=O)c(C(=O)O)cn7C6CC6)CC5)c4)CC3)c(F)cc2c1=O

> 32 µg/mL
> 32 µg/mL
> 32 µg/mL
> 32 µg/mL
> 32 µg/mL

====

test system: Pseudomonas aeruginosa; assay: Antibacterial activity against mexX, mexB deficient Pseudomonas aeruginosa NB52023-CDK005 harboring gyrAT83I by broth microdilution method; assay type: functional
Would you kindly list MIC for each of these compounds?

CN(CC(=O)N1CCN(c2cc3c(cc2F)c(=O)c(C(=O)O)cn3C2CC2)CC1)CC(=O)N1CCN(c2cc3c(cc2F)c(=O)c(C(=O)O)cn3C2CC2)CC1	8 µg/mL
O=C(O)c1cn(C2CC2)c2cc(N3CCN(C(=O)OCCOCCOCCOC(=O)N4CCN(c5cc6c(cc5F)c(=O)c(C(=O)O)cn6C5CC5)CC4)CC3)c(F)cc2c1=O	> 32 µg/mL
O=C(O)c1cn(C2CC2)c2cc(N3CCN(CCOCCOCCN4CCN(c5cc6c(cc5F)c(=O)c(C(=O)O)cn6C5CC5)CC4)CC3)c(F)cc2c1=O	> 32 µg/mL
C=CCN1CCN(c2cc3c(cc2F)c(=O)c(C(=O)O)cn3C2CC2)CC1	4 µg/mL
CC(C)(C)OC(=O)NCCCCCC(=O)N1CCN(c2cc3c(cc2F)c(=O)c(C(=O)O)cn3C2CC2)CC1	> 32 µg/mL

Each compound below has a reported value. Please supply its MIC.
1. O=C(NCC(=O)N1CCN(c2cc3c(cc2F)c(=O)c(C(=O)O)cn3C2CC2)CC1)c1cccc(C(=O)NCC(=O)N2CCN(c3cc4c(cc3F)c(=O)c(C(=O)O)cn4C3CC3)CC2)c1
2. O=C(O)c1cn(C2CC2)c2cc(N3CCN(Cc4cccc(CN5CCN(c6cc7c(cc6F)c(=O)c(C(=O)O)cn7C6CC6)CC5)c4)CC3)c(F)cc2c1=O

1: 32 µg/mL; 2: > 32 µg/mL

For every item below, please supply its MIC.
1. O=CN1CCN(c2cc3c(cc2F)c(=O)c(C(=O)O)cn3C2CC2)CC1
2. O=C(CN1CCN(c2cc3c(cc2F)c(=O)c(C(=O)O)cn3C2CC2)CC1)NCCOCCOCCNC(=O)CN1CCN(c2cc3c(cc2F)c(=O)c(C(=O)O)cn3C2CC2)CC1

1: 16 µg/mL; 2: > 32 µg/mL
